The values you see were collected from ChEMBL document CHEMBL5214945.

- assay method text: Inhibition of HJ-DNA dependent Pseudomonas aeruginosa RuvB ATPase activity expressed in Escherichia coli BL21(DE3) assessed as inhibition of ATP hydrolysis preincubated with compound followed by ATP addition and measured after 1 hr by Kinase-Glo reagent based luminescence analysis
pIC50: −log10 of the molar value.
experimental readout: pIC50

structure notation	recorded result
O=C(O[C@@H]1O[C@@H]2COC(=O)c3cc(O)c(O)c(O)c3-c3c(cc(O)c(O)c3O)C(=O)O[C@H]([C@H]1O)[C@@H]2O)c1cc(O)c(O)c(O)c1	5.63
